Just for reference, patent US9045483B2 is where these values come from.

# Tested system: SUMO E1 (Homo sapiens (Human))
# Test: SUMO E1 inhibition, formation of the Ubc9-SUMO thioester (biochemical assay)
# Assay context: -BSA; read-out: IC50(-BSA)
Attribute measured: IC50

Consider the molecule CCCCn1c(NC(=O)c2ccc(F)cc2)c(C#N)c2nc3ccccc3nc21 and give its measured IC50. 760 nM

====

# Tested system: SUMO E1 (Homo sapiens (Human), UniProt Q9UBT2)
# Sequence (Q9UBT2 whole entry): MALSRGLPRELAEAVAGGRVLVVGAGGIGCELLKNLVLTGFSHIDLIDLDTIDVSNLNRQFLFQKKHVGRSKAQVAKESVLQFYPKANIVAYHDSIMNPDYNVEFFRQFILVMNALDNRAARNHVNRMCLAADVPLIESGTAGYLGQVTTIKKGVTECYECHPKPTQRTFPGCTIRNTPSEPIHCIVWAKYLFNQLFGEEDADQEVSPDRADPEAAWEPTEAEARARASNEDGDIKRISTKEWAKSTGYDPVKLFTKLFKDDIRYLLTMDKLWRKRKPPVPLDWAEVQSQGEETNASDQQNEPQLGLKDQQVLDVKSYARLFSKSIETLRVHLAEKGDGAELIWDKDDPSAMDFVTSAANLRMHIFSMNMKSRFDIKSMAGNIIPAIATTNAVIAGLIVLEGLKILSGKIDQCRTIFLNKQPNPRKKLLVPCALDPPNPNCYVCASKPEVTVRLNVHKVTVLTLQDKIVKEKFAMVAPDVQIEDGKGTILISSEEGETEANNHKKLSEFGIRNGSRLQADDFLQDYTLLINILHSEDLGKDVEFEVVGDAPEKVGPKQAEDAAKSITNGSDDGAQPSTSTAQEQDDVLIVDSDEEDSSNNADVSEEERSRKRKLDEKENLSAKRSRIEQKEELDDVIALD
# Sequence (Q9UBE0 whole entry partner): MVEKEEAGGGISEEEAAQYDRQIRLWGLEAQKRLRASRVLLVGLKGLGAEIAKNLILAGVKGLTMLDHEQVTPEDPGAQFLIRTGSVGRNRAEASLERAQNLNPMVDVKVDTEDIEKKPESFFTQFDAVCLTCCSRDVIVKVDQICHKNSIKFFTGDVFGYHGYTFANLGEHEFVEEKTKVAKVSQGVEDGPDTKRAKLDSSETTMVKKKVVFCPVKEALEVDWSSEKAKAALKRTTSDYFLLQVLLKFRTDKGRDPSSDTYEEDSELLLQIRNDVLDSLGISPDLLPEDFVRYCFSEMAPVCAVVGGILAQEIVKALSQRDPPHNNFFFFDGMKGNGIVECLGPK
# Test: SUMO E1 inhibition, formation of the Ubc9-SUMO thioester (biochemical assay)
# Assay context: in vitro; listed as compound 1; read-out: IC50 for SUMO E1
pIC50: −log10 of the molar value.
Attribute measured: pIC50

Form field: reported pIC50 of CCCCn1c(NS(=O)(=O)c2ccccc2)c(S(=O)(=O)c2ccc(C)cc2)c2nc3ccccc3nc21 [Tricyclic Compound 1] ~6.30

====

# Tested system: SUMO E1 (Homo sapiens (Human), UniProt Q9UBT2)
# Test: SUMO E1 inhibition, formation of the Ubc9-SUMO thioester (biochemical assay)
# Assay context: in vitro; read-out: IC50 for SUMO E1
Attribute measured: pIC50
Bear in mind: pIC50 is minus log10 of a mol/L concentration; give just that figure.

Param item = C=CCn1c(NS(=O)(=O)c2ccccc2)c(S(=O)(=O)c2ccc(C)cc2)c2nc3ccccc3nc21 [Tricyclic Compound 12] ; retrieve measured pIC50. 6.30

Fill blank: measured pIC50 of the molecule CCCCn1c(NC(=O)c2ccc(Cl)cc2)c(C#N)c2nc3cc(C)c(C)cc3nc21 [Tricyclic Compound 8] is ____. 5.35

Which pIC50 is listed for N#Cc1c(NC(=O)c2ccccc2Cl)n(Cc2ccccc2)c2nc3ccccc3nc12 [Tricyclic Compound 5] ? 4.60

What value of measured pIC50 is listed for CCCCn1c(NC(=O)c2ccccc2)c(S(=O)(=O)c2ccccc2)c2nc3ccccc3nc21 [Tricyclic Compound 7] ? 4.01

Would you kindly share the measured pIC50 for CCCCn1c(NC(=O)c2ccco2)c(C#N)c2nc3ccccc3nc21 [Tricyclic Compound 10] ? 5.24

Return reported pIC50; argument: CCCCn1c(NS(=O)(=O)c2ccccc2)c(S(=O)(=O)c2ccc(C)cc2)c2nc3ccccc3nc21 [Tricyclic Compound 1] 6.30
